Target: T1, human Nectin-4 extracellular antigen hNectin-4-His (human, UniProt Q96NY8 32-349)
T1 construct: C-terminal 8xHis tag included
T1 sequence: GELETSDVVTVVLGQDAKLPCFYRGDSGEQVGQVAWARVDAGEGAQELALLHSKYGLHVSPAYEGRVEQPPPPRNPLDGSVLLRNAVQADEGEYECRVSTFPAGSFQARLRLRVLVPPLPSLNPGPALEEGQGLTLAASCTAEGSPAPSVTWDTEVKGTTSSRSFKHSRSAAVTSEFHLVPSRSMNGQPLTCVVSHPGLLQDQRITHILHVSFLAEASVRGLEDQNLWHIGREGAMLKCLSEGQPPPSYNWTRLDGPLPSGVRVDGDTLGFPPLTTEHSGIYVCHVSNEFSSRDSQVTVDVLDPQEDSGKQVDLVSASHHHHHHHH
Assay: ELISA, coated hNectin-4-His
measure: EC50 (µg/mL)
One number for each entry, in µg/mL.

Example cases with answers are listed next.
antibody 10F4-1A1 (antibody, human IgG1, kappa, V domains shown) VH: EVQLVESGGGLVQPGGSLRLSCAASGFSFDNYDMSWVRQAPGKGLEWVSSIKPGSAYKFYADSVKGRFTISRDNSKNTLYLQMNSLRAEDTAVYYCAREYSDVVDYVSVRTPLDYWGQGTLVTVSS VL: DIQMTQSPSSLSASVGDRVTITCRASQGISSYLAWYQQKPGKAPKLLIYAASSLQSGVPSRFSGSGSGTDFTLTISSLQPEDFATYYCQQHYTTPPTFGQGTKVEIKR : 0.051
antibody 10F4-1G7 (antibody, human IgG1, kappa, V domains shown) VH: EVQLVESGGGLVQPGGSLRLSCAASGYNFGDYDMSWVRQAPGKGLEWVSSIIGHGDTKFYADSVKGRFTISRDNSKNTLYLQMNSLRAEDTAVYYCAREYSDVVDYVSVRTPLDYWGQGTLVTVSS VL: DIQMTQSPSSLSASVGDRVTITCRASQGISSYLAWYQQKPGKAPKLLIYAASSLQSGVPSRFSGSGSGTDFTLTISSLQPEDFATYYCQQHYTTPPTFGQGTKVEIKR : 0.068

Switching to the query record.
Provide EC50 value for the following binder: antibody 10F4-1H6 (antibody, human IgG1, kappa, V domains shown) VH: EVQLVESGGGLVQPGGSLRLSCAASGFNFYDYDMSWVRQAPGKGLEWVSGIKTHSGGNGYADSVKGRFTISRDNSKNTLYLQMNSLRAEDTAVYYCAREYSDVVDYVSVRTPLDYWGQGTLVTVSS VL: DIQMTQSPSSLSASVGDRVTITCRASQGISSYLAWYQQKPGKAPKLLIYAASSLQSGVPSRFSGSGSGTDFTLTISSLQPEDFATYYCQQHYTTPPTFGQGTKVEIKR
0.063
